experiment: aqueous solubility; details: aqueous solution, pH 7, aqueous buffer

>  <Item Smiles>
C[C@@H](c1nc(-c2ccc(C#N)cc2)cs1)[C@@](Cn1cncn1)(OCOP(=O)(O)O)c1ccc(F)cc1F

>  <solubility>
> 10000 µg/mL

$$$$

###

test: aqueous solubility; conditions: aqueous solution, pH 4.3, aqueous buffer

>  <Item Smiles>
C[C@@H](c1nc(-c2ccc(C#N)cc2)cs1)[C@@](Cn1cncn1)(OCOP(=O)(O)O)c1ccc(F)cc1F

>  <solubility>
5000 to 6000 µg/mL

$$$$
